The origin of these recorded values is the Immune Epitope Database (IEDB).

target: HLA-B*37:01; assay: IEDB peptide-MHC binding, purified MHC/competitive/fluorescence; bounds were set here for any values at or beyond the usual limits of such assays; conditions: source organism: Homo sapiens
Entries annotated with measured IC50

So what's the measured IC50 for this one? SLMASSPTSI ≥ 20 µM

Read the next record carefully.
Request the reported IC50 associated with YPDPVIKV ≥ 20 µM

###

target: HLA-B*07:02; assay: IEDB peptide-MHC binding, purified MHC/competitive/fluorescence; filed as Kd, often an IC50 or EC50 that approximates it; bounds were set here for any values at or beyond the usual limits of such assays; details: source organism: Influenza A virus H3N2
recorded_metric: Kd (µM)
Reply numerically in µM, unit not repeated.

Would you mind telling me what Kd value was observed for RMKWMMAM ? 3.25

###

biological target: HLA-B*07:02; assay: IEDB peptide-MHC binding, purified MHC/competitive/radioactivity; filed as Kd, often an IC50 or EC50 that approximates it; bounds were set here for any values at or beyond the usual limits of such assays; details: source organism: Human alphaherpesvirus 2
recorded_metric: pKd
Remember, pKd is on a log scale: it is -log10 of the molar concentration.

GET /values?readout=pKd&item= GPHETITAL 8.85

###

molecular target: HLA-A*31:01; test: IEDB peptide-MHC binding, purified MHC/competitive/radioactivity; filed as Kd, often an IC50 or EC50 that approximates it; bounds were set here for any values at or beyond the usual limits of such assays; conditions: source organism: Mammarenavirus juninense
recorded_metric: Kd (µM)
The reply should be a number in µM, with the unit left off.

What Kd appears in the records for this sequence with HLA-A*31:01? GKQYIHCFRK 3.67

###

biological target: HLA-A*02:06; assay: IEDB peptide-MHC binding, purified MHC/competitive/radioactivity; filed as Kd, often an IC50 or EC50 that approximates it; bounds were set here for any values at or beyond the usual limits of such assays; conditions: source organism: Vaccinia virus WR
Measured Kd, listed per entry.
Report only the number, with the unit nM understood.

Here's what some known entries look like.
Return reported Kd; argument: LLFASMGFK 16700

Bench note: what Kd did KTANNYETI show? 329

Sample MIGNYFSGVL — what was its Kd? 1310

Reported Kd for VIKLVKSLV : what is it? 4120

Using the record for DIRDKYMEL , report its Kd. 14500

New cases:
Return reported Kd; argument: IVNNFITKEI 14200

Form field: reported Kd of HIKTIAVSV 1550

Any idea what Kd was measured for GLDERFVEEL ? 2520

Returns the measured Kd for the input sequence. Input: RIITILQDI 2.01

What Kd value was documented for this sequence, LATLNTLITL ? 323

Need Kd of NITPDDGLGL , thanks. 3450

Reported Kd, sequence RLFTRCAVI : ____ 2820

###

molecular target: HLA-A*01:01; assay: IEDB peptide-MHC binding, purified MHC/direct/fluorescence; filed as Kd, often an IC50 or EC50 that approximates it; bounds were set here for any values at or beyond the usual limits of such assays; conditions: source organism: Reston ebolavirus - Reston
recorded_metric: Kd

Kd for QLSLRMLSL ? ≥ 20 µM

###

biological target: HLA-A*69:01; assay: IEDB peptide-MHC binding, purified MHC/direct/fluorescence; filed as Kd, often an IC50 or EC50 that approximates it; bounds were set here for any values at or beyond the usual limits of such assays; conditions: source organism: Vibrio cholerae
recorded_metric: Kd (µM)
Express your answer in µM, writing the number without its unit.

Request the reported Kd associated with QLQCHQIAI 5.31

###

target: HLA-B*57:01; assay: IEDB peptide-MHC binding, purified MHC/direct/fluorescence; filed as Kd, often an IC50 or EC50 that approximates it; bounds were set here for any values at or beyond the usual limits of such assays; details: source organism: Giardia intestinalis
recorded_metric: Kd

# value lookup — system HLA-B*57:01, readout Kd, item LEKWNLGII ≥ 20 µM

###

target: HLA-B*35:01; test: IEDB peptide-MHC binding, purified MHC/competitive/fluorescence; filed as Kd, often an IC50 or EC50 that approximates it; bounds were set here for any values at or beyond the usual limits of such assays; settings: source organism: Pseudomonas aeruginosa UCBPP-PA14
pKd: −log10 of the molar value.
recorded_metric: pKd

Given the sequence FLDDASNSA , what is its reported pKd? ≤ 4.70

###

biological target: HLA-B*15:01; assay: IEDB peptide-MHC binding, purified MHC/direct/fluorescence; filed as Kd, often an IC50 or EC50 that approximates it; bounds were set here for any values at or beyond the usual limits of such assays; conditions: source organism: Aracatuba virus
recorded_metric: Kd

Data request, read-out Kd, for YKEPNSIIL ≥ 20 µM

###

target: HLA-B*46:01; assay: IEDB peptide-MHC binding, purified MHC/competitive/fluorescence; filed as Kd, often an IC50 or EC50 that approximates it; bounds were set here for any values at or beyond the usual limits of such assays; conditions: source organism: Burkholderia mallei SAVP1
// reported Kd for each item listed

Which Kd reading was recorded for the sequence RLDARLQVL ? ≥ 20 µM

The record that follows has no Kd shown yet.
Consider the sequence shown here: RFNAIWFNH What is its recorded Kd? ≥ 20 µM

###

target: HLA-A*01:01; assay: IEDB peptide-MHC binding, purified MHC/direct/fluorescence; filed as Kd, often an IC50 or EC50 that approximates it; bounds were set here for any values at or beyond the usual limits of such assays; settings: source organism: Yellow fever virus
recorded_metric: Kd

// returns reported Kd for input FHERGYVKL ≥ 20 µM

###

biological target: HLA-B*15:01; experiment: IEDB peptide-MHC binding, purified MHC/competitive/fluorescence; filed as Kd, often an IC50 or EC50 that approximates it; bounds were set here for any values at or beyond the usual limits of such assays; settings: source organism: Mycobacterium tuberculosis C
recorded_metric: Kd

# value lookup — system HLA-B*15:01, readout Kd, item ALFDRPAFK ≥ 20 µM

###

target: HLA-B*44:02; assay: IEDB peptide-MHC binding, purified MHC/competitive/radioactivity; filed as Kd, often an IC50 or EC50 that approximates it; bounds were set here for any values at or beyond the usual limits of such assays; details: source organism: Dengue virus 1 Brazil/97-11/1997
recorded_metric: Kd (nM)
Only the number, expressed in nM, is required.

Item YDEDNPYKTW has what recorded Kd? 470

More entries:
Recorded Kd for KEAVEDERFW , please? 45.4

###

biological target: HLA-A*02:01; assay: IEDB peptide-MHC binding, purified MHC/competitive/fluorescence; filed as Kd, often an IC50 or EC50 that approximates it; bounds were set here for any values at or beyond the usual limits of such assays; conditions: source organism: Cryptosporidium parvum Iowa II
recorded_metric: Kd (nM)
Give just the number in nM; leave the unit off.

What value of Kd has been recorded for this entry: FLYPSWSLY 169

###

target: HLA-B*46:01; test: IEDB peptide-MHC binding, purified MHC/direct/fluorescence; filed as Kd, often an IC50 or EC50 that approximates it; bounds were set here for any values at or beyond the usual limits of such assays; details: source organism: Mycobacterium tuberculosis C
pKd: −log10 of the molar value.
recorded_metric: pKd

What value of measured pKd is listed for FPRYPLNVL ? ≤ 4.70

###

biological target: HLA-C*14:02; experiment: IEDB peptide-MHC binding, purified MHC/direct/fluorescence; filed as Kd, often an IC50 or EC50 that approximates it; bounds were set here for any values at or beyond the usual limits of such assays; settings: source organism: West Nile virus
recorded_metric: Kd (nM)
Express it in nM; write the number only.

For the sequence DTITNVTTM , what Kd is on record? 1650

###

molecular target: HLA-A*02:03; experiment: IEDB peptide-MHC binding, purified MHC/competitive/fluorescence; filed as Kd, often an IC50 or EC50 that approximates it; bounds were set here for any values at or beyond the usual limits of such assays; details: source organism: Giardia intestinalis
recorded_metric: Kd (µM)
Write the number in µM without appending the unit.

Could you share which Kd value was measured for LEKWNLGII ? 4.37

###

target: HLA-B*58:01; experiment: IEDB peptide-MHC binding, purified MHC/direct/fluorescence; filed as Kd, often an IC50 or EC50 that approximates it; bounds were set here for any values at or beyond the usual limits of such assays; details: source organism: Salmonella enterica
pKd: −log10 of the molar value.
recorded_metric: pKd

// returns reported pKd for input WTDLYTSMS ≤ 4.70

###

molecular target: HLA-B*44:02; experiment: IEDB peptide-MHC binding, purified MHC/direct/fluorescence; filed as Kd, often an IC50 or EC50 that approximates it; bounds were set here for any values at or beyond the usual limits of such assays; details: source organism: Salmonella enterica
pKd: −log10 of the molar value.
recorded_metric: pKd

Give the measured pKd of WTDLYTSMS . ≤ 4.70

###

target: HLA-B*58:01; assay: IEDB peptide-MHC binding, purified MHC/direct/fluorescence; filed as Kd, often an IC50 or EC50 that approximates it; bounds were set here for any values at or beyond the usual limits of such assays; conditions: source organism: La Crosse virus
recorded_metric: Kd

I would be grateful if you could share the reported Kd for YRKPSGGVF . ≥ 20 µM
